Values were extracted from patent US10059741B2.

System: H3N2 Perth/16/2009
Assay: microbe, parasite or virus in culture
Assay type: cell-based, influenza A virus
Settings: read-out: EC50 (μM) H3N2 Perth/16/2009
Bridge positions count the residues as written; N and C are the ends. Square brackets hold non-standard residues; d marks the D form. Peptide text beside a SMILES is read from it. S5 = C=CCCC[C@](C)(N)C(=O)O; Nle = CCCC[C@H](N)C(=O)O; Aib = CC(C)(N)C(=O)O
Provide the recorded EC50 for the entries that follow.

INPUT: // query EC50 value for entry CCCC[C@H](NC(C)=O)C(=O)N[C@@H](CC(=O)O)C(=O)N[C@H](C(=O)N[C@@H](CC(N)=O)C(=O)N[C@@]1(C)CCCC=CCCC[C@@](C)(C(=O)N[C@@H](CC(C)C)C(=O)N[C@@H](C)C(=O)N[C@H](C(=O)N[C@@H](CCC(N)=O)C(=O)N[C@@H](C)C(=O)NC(C)(C)C(=O)N[C@@H](C)C(=O)N[C@@H](C)C(N)=O)C(C)C)NC(=O)[C@H](CC(C)C)NC(=O)[C@H](CC(C)C)NC(=O)[C@H]([C@@H](C)O)NC1=O)C(C)C [SP-23] (Ac-[Nle]DVN[S5]TLL[S5]LAVQA[Aib]AA-NH2; staple 5-9)
OUTPUT: 1.5 to 10 µM

INPUT: For the compound CCCC[C@H](NC(C)=O)C(=O)N[C@@H](CC(=O)O)C(=O)N[C@H](C(=O)N[C@@H](CC(N)=O)C(=O)N[C@@]1(C)CCCC=CCCC[C@@](C)(C(=O)N[C@@H](CC(C)C)C(=O)N[C@@H](C)C(=O)N[C@H](C(=O)NC(C)(C)C(=O)N[C@@H](C)C(=O)N[C@@H](CCC(N)=O)C(=O)N[C@@H](C)C(=O)N[C@H](C)C(=O)O)C(C)C)NC(=O)[C@H](CC(C)C)NC(=O)[C@H](CC(C)C)NC(=O)[C@H]([C@@H](C)O)NC1=O)C(C)C [SP-17] (Ac-[Nle]DVN[S5]TLL[S5]LAV[Aib]AQA[dA]-OH; staple 5-9) , what EC50 is on record?
OUTPUT: 10 to 25 µM

INPUT: Look at this compound and give its reported EC50. CCCC[C@H](NC(C)=O)C(=O)N[C@@H](CC(=O)O)C(=O)N[C@H](C(=O)N[C@@H](CC(N)=O)C(=O)N[C@@]1(C)CCCC=CCCC[C@@](C)(C(=O)N[C@@H](CC(C)C)C(=O)N[C@@H](C)C(=O)N[C@H](C(=O)N[C@@H](CCC(N)=O)C(=O)N[C@@H](C)C(=O)N[C@@H](CCC(N)=O)C(=O)NC(C)(C)C(=O)N[C@@H](C)C(N)=O)C(C)C)NC(=O)[C@H](CC(C)C)NC(=O)[C@H](CC(C)C)NC(=O)[C@H]([C@@H](C)O)NC1=O)C(C)C [SP-20] (Ac-[Nle]DVN[S5]TLL[S5]LAVQAQ[Aib]A-NH2; staple 5-9)
OUTPUT: 1.5 to 10 µM

INPUT: Look at this compound and give its reported EC50. CCCC[C@H](NC(C)=O)C(=O)N[C@@H](CC(=O)O)C(=O)N[C@H](C(=O)N[C@@H](CC(N)=O)C(=O)N[C@@]1(C)CCCC=CCCC[C@@](C)(C(=O)N[C@@H](CC(C)C)C(=O)N[C@@H](CCCCN)C(=O)N[C@H](C(=O)N2CCC[C@H]2C(=O)NC(C)(C)C(=O)N[C@@H](CCC(N)=O)C(N)=O)C(C)C)NC(=O)[C@H](CC(C)C)NC(=O)[C@H](CC(C)C)NC(=O)[C@H]([C@@H](C)O)NC1=O)C(C)C [SP-3] (Ac-[Nle]DVN[S5]TLL[S5]LKVP[Aib]Q-NH2; staple 5-9)
OUTPUT: 25 to 50 µM
